# tgt: T1, recombinant human DLL4 (Cat# 1506-D4/CF, R&D Systems) (human, UniProt Q9NR61 27-529)
# T1 construct: Bought protein; also called hDLL4; rHuman DLL4
# experimental-protocol: ELISA, DLL4 coated, Fab 1.23 nM
value-type: ELISA absorbance at 450 nm (A450)
Kindly answer with a numeric value in A450, unit omitted.

The binder listed as Fab VH5-51_IGHD5-18*01>3_IGHJ4*01 G100K/G104T G24T/S28R/G35V & V3-4_IGLJ1*01 V91L/S96P (Fab, V domains shown, Fab made in E. coli: VH on CH1 with His6 and Flag tags (Plasmid A), VL on lambda CL (Plasmid E); also called H: KT TRV & L: LP) VH: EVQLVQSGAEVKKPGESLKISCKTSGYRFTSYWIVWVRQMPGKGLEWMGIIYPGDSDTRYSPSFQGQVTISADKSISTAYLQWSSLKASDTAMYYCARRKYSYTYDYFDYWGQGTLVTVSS VL: QTVVTQEPSFSVSPGGTVTLTCGLSSGSVSTSYYPSWYQQTPGQAPRTLIYSTNTRSSGVPDRFSGSILGNKAALTITGAQADDESDYYCLLYMGPGISYVFGTGTKVTVL shows ELISA absorbance at 450 nm equal to 0.03
